test system: HOP-62 NSCLC; assay: NCI tumour cell line growth inhibition, 48 h
experimental-readout: TGI (µM)

C[N+]12C=CC=C1C(N1CCCC1)c1sc(-c3ccc(Cl)cc3)cc12 (stereo unspecified) :: 31.3
Cc1ccc(CCNC(=S)SCC(NC(=O)CCC(N)C(=O)O)C(=O)NCC(=O)O)cc1 (stereo unspecified) :: 8.08
COc1cc2c(c(OC)c1OC)-c1c(c3ccc([N+](=O)[O-])cc3c(=O)n1CCCN=[N+]=[N-])C2=O :: 38.1

====

system: OVCAR-3 ovarian; assay: NCI tumour cell line growth inhibition, 48 h
Known TGI of a selection of compounds
experimental-readout: TGI (µM)

O=C(O)CCCCCNC(=O)CCC(CN(CC(=O)OCc1ccccc1)CC(=O)OCc1ccccc1)N(CC(=O)OCc1ccccc1)CC(=O)OCc1ccccc1 (stereo unspecified) :: 33.9
Nc1cc(N)c2nc(-c3ccccc3)c(Sc3ccc(F)cc3)nc2c1 :: 33.6
Nc1cc2[nH]c(=O)c3cc(Cl)ccc3c2cc1Cl :: 29.4
O=C1c2cccc3cc4ccccc4c(c23)C(=O)N1CCCNCCNCCCN1C(=O)c2cccc3cc4ccccc4c(c23)C1=O :: 1.86

====

This section presents compounds with their documented TGI values.
test system: HOP-92 NSCLC; experiment: NCI tumour cell line growth inhibition, 48 h
experimental-readout: TGI

COc1cc2c(oc(=O)c3c4oc([Si](C)(C)C)cc4cc(OC)c23)c2cccc(O)c12 :: > 100 µM
CC(C)(O)C1CC(=O)C(C)(C2C(O)CC3(C)C4CC=C5C(CCC(O)C5(C)C)C4(C)C(=O)CC23C)O1 (centres undefined) :: > 100 µM
Cn1c([N+](=O)[O-])cnc1/C=C1\Oc2ccc(Cl)cc2C1=O :: 4.12 µM
Nc1cc(N)c2nc(-c3ccccc3)c(Sc3ccc(F)cc3)nc2c1 :: 54.8 µM

====

In this section, each of the compounds is paired with its reported TGI.
system: A549 NSCLC; assay: NCI tumour cell line growth inhibition, 48 h
experimental-readout: TGI (µM)

CCCCCCc1cc2cc(C(=O)Nc3cccc(C(F)(F)F)c3)c(=N)oc2cc1O :: 10.9
CC/C(=C(\c1ccccc1)c1ccc(OCC[N+](C)(C)C)cc1)c1ccccc1 :: 35.3
CC[N+]1(C)CCC(O)(/C=C/c2ccccc2)C(C(=O)/C=C/c2ccccc2)C1 (stereo not given) :: 45.7
Nc1cc(N)c2nc(-c3ccccc3)c(Sc3ccc(F)cc3)nc2c1 :: 30.9
CCO/C=N/C1=C(C#N)C(c2ccc(OC)c(OC)c2)c2c(-c3ccccc3)nn(-c3ccccc3)c2O1 (stereo not given) :: 40.5
COc1cc(C=Nc2ccc(Oc3ccc(Cl)cc3)c(Cl)c2)cc(OC)c1OC :: 44.7
C=C(Cl)C(Cl)(CBr)CCC(Cl)C(C)C (stereo not given) :: 27.1
O=S(=O)(CC#CCS(=O)(=O)c1ccccc1)c1ccccc1 :: 37.5
Nc1cc2[nH]c(=O)c3cc(Cl)ccc3c2cc1Cl :: 44.7
O=C(NC(c1ccccc1)C(O)C(=O)OCc1ccc2c(c1)C(=O)c1ccccc1C2=O)c1ccccc1 (stereo not given) :: 54
Cc1ccc(CCNC(=S)SCC(NC(=O)CCC(N)C(=O)O)C(=O)NCC(=O)O)cc1 (stereo not given) :: 13.4
O=C1N[C@@H](c2c[nH]c3ccc(Br)cc23)C(=O)N[C@H]1c1c[nH]c2ccc(Br)cc12 :: 33.8
O=C(/C=C\c1ccc(Cl)c(Cl)c1)c1ccccc1 :: 26.2
C[As](C)SCC(COC(=O)c1ccccc1)OC(=O)c1ccccc1 (stereo not given) :: 11.3
COc1ccc2c(c1)CCC1C2CCC2(C)C1CC[C@@]2(O)CNC(=O)/C=C/c1ccc(O)c(O)c1 (stereo not given in full) :: 29.3
CC(C)(C)OC(=O)N1CC(COS(C)(=O)=O)c2ccc(O)cc21 (stereo not given) :: 10.7
